All values here come from patent US6509033B1.

biological target: HLA-DR1 (Homo sapiens, UniProt P01903+P01911, A100R/D57E/F55L/F60I/F76Y/I96L/L162R/M171V/P40L/Q125E/R42F/V115G/Y59C); construct: made in house; host or cells: Sf9 insect cells; assay: Competition of synthetic peptides against 125I-labeled HA 307-319 for binding to empty HLA-DR1 (Ki); conditions: read-out: Ki vs HA 307-319; concentration inhibiting 50% of 125I-labeled HA 307-319 binding; 10 nM labeled peptide, 10 nM empty HLA-DR1 from Sf9 insect cells, pH 7.2, 37° C., 85 hours
pKi: −log10 of the molar value. Ends that are not written are not given here.
MEASUREMENT_KIND: pKi

query: State the recorded pKi for this entry: KMRMATPLLMQALPM [Ii 106-120]
result: > 8.00
